B1: KIAA1614 peptide 568-583 (uncharacterized protein KIAA1614), 16-mer library wild type / USP8 rhodanese domain (ubiquitin carboxyl-terminal hydrolase 8, residues 174-317) (parent)
chain 1: GMERVLGGLSSPLRLL
chain 2: KCETKEKGAITAKELYTMMTDKNISLIIMDARRMQDYQDSCILHSLSVPEEAISPGVTASWIEAHLPDDSKDTWKKRGNVEYVVLLDWFSSAKDLQIGTTLRSLKDALFKWESKTVLRNEPLVLEGGYENWLLCYPQYTTNAKV

# Variants of: B1
# Measurement Description: peptide-phage display deep mutational scan (M13, 16-mer library, displayed with a C-terminal GGGSG linker encoded by the 3' flank) selected against the GST-tagged USP8 rhodanese domain, four rounds; NGS counts summed over selection …
# Measurement Setup: with USP8 rhodanese domain (ubiquitin carboxyl-terminal hydrolase 8, residues 174-317), 10 µg GST-bait on MaxiSorp, pre-cleared on GST, 2 h at 4 °C, five washes with 0.05% Tween 20 in PBS, not graded, scale: average over two replicas of the peptide's fractional NGS count
Assay Endpoint: screen value

Example entries begin here.
Variant Designation	screen value
chain 1 L13R	1.26e-05
chain 1 G7H	0.000322
chain 1 V5R	0.000121
chain 1 M2V	0.0166
chain 1 G1S	0.00457
chain 1 G1Y	0.000202
chain 1 S10E	1.55e-05
chain 1 S11A	1.26e-05

[a] chain 1 E3L
[b] chain 1 V5W
[c] chain 1 R14M
Request: # desc sort on screen value across 3 variants // rank by listing labels in the order requested
Response: c, b, a

[A] chain 1 G7W
[B] chain 1 V5L
[C] chain 1 L16V
[D] chain 1 L13Y
[E] chain 1 G1Q
Request: With regard to screen value, arrange the entries in ascending order, please. // rank by listing labels in the order requested
Response: A, C, D, B, E
(A: 6.32e-06, C: 5.05e-05, D: 0.000122, B: 0.000344, E: 0.0088)

[I] chain 1 L6N
[II] chain 1 E3P
[III] chain 1 R4A
[IV] chain 1 R14K
[V] chain 1 P12S
Request: With regard to screen value, arrange the entries in ascending order, please. // rank by listing labels in the order requested
Response: I, III, II, V, IV

This collection of values is drawn from paper PMC12057046.
